- assay.system: UniProtKB P46098
- Sequence (P46098 24-478): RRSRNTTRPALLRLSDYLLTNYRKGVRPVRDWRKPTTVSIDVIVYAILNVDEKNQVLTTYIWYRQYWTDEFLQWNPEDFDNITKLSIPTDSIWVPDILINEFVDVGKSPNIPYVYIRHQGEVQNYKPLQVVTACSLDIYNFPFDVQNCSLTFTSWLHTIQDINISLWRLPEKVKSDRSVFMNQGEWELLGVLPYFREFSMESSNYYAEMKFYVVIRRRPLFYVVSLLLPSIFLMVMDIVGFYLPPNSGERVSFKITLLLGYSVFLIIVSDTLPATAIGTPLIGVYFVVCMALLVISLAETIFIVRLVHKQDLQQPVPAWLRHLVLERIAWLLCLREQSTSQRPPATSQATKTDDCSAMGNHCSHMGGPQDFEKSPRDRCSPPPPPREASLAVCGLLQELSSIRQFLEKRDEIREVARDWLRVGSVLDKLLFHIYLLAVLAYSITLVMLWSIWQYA
- assay.remarks: biochemical
- Assay type: binding
pKi: −log10 of the molar value. Structures can show the parent of a compound that is named as a salt.
measurement.name: pKi

                                   compound  result_qualifier  observed_measurement
0  Clc1ccc(NC2=NOC3(C2)CN2CCC3CC2)cc1Cl (single isomer, unassigned) [Compound 21-P1]                 =                  7.38
1  Clc1ccc(NC2=NOC3(C2)CN2CCC3CC2)cc1 (single isomer, unassigned) [Compound 20-P1]                 =                  7.16
2  Clc1cc2cnc(NC3=NO[C@@]4(C3)CN3CCC4CC3)cc2cc1Cl [(R)-62, trifluoroacetate]                 <                  5.00
3  Cc1cc2cnc(NC3=NO[C@@]4(C3)CN3CCC4CC3)cc2o1 [(R)-100, hydrochloride]                 <                  5.00
4  Clc1ccc(NC2=NO[C@@]3(C2)CN2CCC3CC2)cc1 [(R)-20, hydrochloride]                 =                  6.96
5  Cc1cc2cnc(NC3=NO[C@@]4(C3)CN3CCC4CC3)cc2s1 [(R)-99, hydrochloride]                 <                  5.00
